B1: TPR t1 (parent)
chain: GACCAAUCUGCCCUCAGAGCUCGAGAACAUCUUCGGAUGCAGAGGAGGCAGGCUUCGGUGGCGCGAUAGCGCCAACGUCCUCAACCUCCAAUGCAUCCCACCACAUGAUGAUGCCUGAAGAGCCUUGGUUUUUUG

# Variants of: B1
# Method Summary: polymerase ribozyme fitness, log enrichment relative to wild type (log ratio); higher = more active; in vitro selection for triplet polymerase activity
Measurement Name: polymerase ribozyme fitness (log ratio)
Answers are plain numbers.

- Sequence: "GACCAAUCUGCCCUAAGAGCUCGAGAACAUCUUCGGAUGAAGAGGAGGCAGGCUUGGGUGGCGCGAUAGCGCCAACGUCCUCAACCUCCAAUGCAUCCCACCACAUGAUGAUGCCUGAAGAGCCUUGGUUUUUUG [C15A C40A C56G]"
  Measured Number: -6.31
- Sequence: "GACCAAUCGGCCCUCAGAGCUCGAGAACAUCUUCGGAUGCAGAGGAGGCAGGCUUCGGUGGCGCGAUAGCGCCAACGUCCUCAACCUCCAAUGCAUCCCACCACAUGAUCAUGCCUGAAGAGCCUUGGUUUUUUG [U9G G110C]"
  Measured Number: -4.11

Each variant below has a reported value. Please supply its polymerase ribozyme fitness (log ratio).
1. GACCACUCUGCCCUCAGAGCUCGAGAACAUCUUCGGAUGCAGAGGAGACAGGCUUCGGUGGCGCGAUAGCGCCAACGUCCUAAACCUCCAAUGCAUCCCACCACAUGAUGAUGCCUGAAGAGCCUUGGUUUUUUG [A6C G48A C82A]
2. GACCAAUCUGCCCUCAGAGCGCGAGAACAUCUUCGGACGCAGAGGAGGCAGGCUUCGGUGGCGCGAUAGCGCCAACGUCCUCAACCUCCAAUGCAUCCCACCACAUGAUGAUGCCUGAAGAGCCUUGGUUUUUUG [U21G U38C]
3. GACCAAUCUGCCCUCAGAGCUCGAGAACAUCUUCGGAUGCAGAGGAGGCAGGCUUCGGUGGCGCGAUAGCGCCAACGUCCUCAACCUCCAAUGCAUCCCACCACAUGAUGAUGCCUAAAUAGCCUUGGUUUUUUG [G117A G120U]
4. GACCAAUCUGCCCUCAGAGCUCGAGAACAUCUUCGGAUGCAGAGGAUUCAGGCUUCGGUGGCUCGAUAGCGCCAACGUCCUCAACCUCCAAUGCAUCCCACCACAUGAUGGUGCCUGAAGAGCCUUGGUUUUUUG [G47U G48U G63U A111G]

Marked response:
1: -1.56; 2: -2.11; 3: -1.9; 4: -4.04
